Test system: Klebsiella pneumoniae
Assay: Minimum inhibition concentration in vitro determined against Klebsiella pneumoniae 8045
Format: functional
Mark t for MIC under 0.8 µg/mL, f if at or over.

- compound: "CN1CCN(c2cc3c(cc2F)c(=O)c(C(=O)O)cn3-c2ccc(O)cc2)CC1"
  tested system: "Klebsiella pneumoniae"
  class label: "t"
- compound: "O=C(O)c1cn(-c2ccc(F)cc2)c2cc(N3CCC(O)CC3)c(F)cc2c1=O"
  tested system: "Klebsiella pneumoniae"
  class label: "t"
- compound: "O=C(O)c1cn(-c2ccc(F)cc2)c2cc(N3CCCCC3)c(F)cc2c1=O"
  tested system: "Klebsiella pneumoniae"
  class label: "f"
- compound: "O=C(O)c1cn(-c2ccc(F)cc2)c2cc(N3CCCC3)c(F)cc2c1=O"
  tested system: "Klebsiella pneumoniae"
  class label: "t"
- compound: "O=C(O)c1cn(-c2ccc(F)cc2)c2cc(N3CCSCC3)c(F)cc2c1=O"
  tested system: "Klebsiella pneumoniae"
  class label: "t"
- compound: "O=C(O)c1cn(-c2ccc(F)cc2)c2cc(N3CCOCC3)c(F)cc2c1=O"
  tested system: "Klebsiella pneumoniae"
  class label: "t"
- compound: "CN1CCN(c2cc3c(cc2F)c(=O)c(C(=O)O)cn3-c2ccc(F)cc2F)CC1"
  tested system: "Klebsiella pneumoniae"
  class label: "t"
- compound: "CC(=O)N1CCN(c2cc3c(cc2F)c(=O)c(C(=O)O)cn3-c2ccc(F)cc2)CC1"
  tested system: "Klebsiella pneumoniae"
  class label: "f"
- compound: "O=C(O)c1cn(-c2ccc(F)cc2)c2cc(N3CCC(O)C3)c(F)cc2c1=O (centres undefined)"
  tested system: "Klebsiella pneumoniae"
  class label: "t"
- compound: "CN(C)C1CCN(c2cc3c(cc2F)c(=O)c(C(=O)O)cn3-c2ccc(F)cc2)CC1"
  tested system: "Klebsiella pneumoniae"
  class label: "t"
- compound: "CN1CCN(c2cc3c(cc2F)c(=O)c(C(=O)O)cn3-c2ccc3c(c2)OCO3)CC1"
  tested system: "Klebsiella pneumoniae"
  class label: "t"
- compound: "CN1CCN(c2cc3c(cc2F)c(=O)c(C(=O)O)cn3-c2ccc(Br)cc2)CC1"
  tested system: "Klebsiella pneumoniae"
  class label: "f"

---

Test system: Pseudomonas aeruginosa
Experiment: Minimum inhibition concentration in vitro determined against Pseudomona aeruginosa 5007
Assay type: functional
Friendly reminder: MIC below 6 µg/mL is Condition met, at or above is Condition not met.

- compound: "CN(C)C1CCN(c2cc3c(cc2F)c(=O)c(C(=O)O)cn3-c2ccc(F)cc2)C1 (centres undefined)"
  tested system: "Pseudomonas aeruginosa"
  class label: "Condition not met"
- compound: "Cc1ccccc1-n1cc(C(=O)O)c(=O)c2cc(F)c(N3CCN(C)CC3)cc21"
  tested system: "Pseudomonas aeruginosa"
  class label: "Condition not met"
- compound: "CN1CCN(c2cc3c(cc2F)c(=O)c(C(=O)O)cn3-c2ccc(O)cc2)CC1"
  tested system: "Pseudomonas aeruginosa"
  class label: "Condition met"
- compound: "CC(C)N(C)c1cc2c(cc1F)c(=O)c(C(=O)O)cn2-c1ccc(F)cc1"
  tested system: "Pseudomonas aeruginosa"
  class label: "Condition not met"
- compound: "CN1CCN(c2cc3c(cc2F)c(=O)c(C(=O)O)cn3-c2cccc(F)c2)CC1"
  tested system: "Pseudomonas aeruginosa"
  class label: "Condition not met"
- compound: "CN1CCN(c2cc3c(cc2F)c(=O)c(C(=O)O)cn3-c2ccccc2)CC1"
  tested system: "Pseudomonas aeruginosa"
  class label: "Condition not met"
- compound: "O=C(O)c1cn(-c2ccccc2)c2cc(N3CCNCC3)c(F)cc2c1=O"
  tested system: "Pseudomonas aeruginosa"
  class label: "Condition met"
- compound: "NC1CCN(c2cc3c(cc2F)c(=O)c(C(=O)O)cn3-c2ccc(F)cc2)C1 (centres undefined)"
  tested system: "Pseudomonas aeruginosa"
  class label: "Condition met"
- compound: "O=C(O)c1cn(-c2ccc(F)cc2)c2cc(N3CCSCC3)c(F)cc2c1=O"
  tested system: "Pseudomonas aeruginosa"
  class label: "Condition met"

---

System: Pseudomonas aeruginosa
Test: Minimum inhibition concentration in vitro determined against Pseudomona aeruginosa 5007
Assay type: functional
Cut-off 3 µg/mL on MIC: below means true, at or above means false.

- compound: "O=C(O)c1cn(-c2ccc(F)cc2)c2cc(N3CCCC3)c(F)cc2c1=O"
  class label: "true"
- compound: "CN(C)C1CCN(c2cc3c(cc2F)c(=O)c(C(=O)O)cn3-c2ccc(F)cc2)CC1"
  class label: "false"
- compound: "CN1CCN(c2cc3c(cc2F)c(=O)c(C(=O)O)cn3-c2ccc(Cl)cc2)CC1"
  class label: "false"
- compound: "CC(=O)NC1CCN(c2cc3c(cc2F)c(=O)c(C(=O)O)cn3-c2ccc(F)cc2)C1 (stereo not given)"
  class label: "false"
- compound: "O=C(O)c1cn(-c2ccc(F)cc2)c2cc(N3CCNCC3)c(F)cc2c1=O"
  class label: "true"

---

Tested on: Streptococcus pyogenes
Assay: Minimum inhibition concentration in vitro determined against Streptococcus pyogenes 930
Type: functional
Binary label based on MIC with cut-off 0.8 mg/L: below gives label 1, not below gives label 0.

- compound: "CN1CCN(c2cc3c(cc2F)c(=O)c(C(=O)O)cn3-c2ccc(Br)cc2)CC1"
  class label: "label 0"
- compound: "CCC(=O)N1CCN(c2cc3c(cc2F)c(=O)c(C(=O)O)cn3-c2ccc(F)cc2)CC1"
  class label: "label 0"
- compound: "NC1CCN(c2cc3c(cc2F)c(=O)c(C(=O)O)cn3-c2ccc(F)cc2)C1 (centres undefined)"
  class label: "label 1"
- compound: "CNC1CCN(c2cc3c(cc2F)c(=O)c(C(=O)O)cn3-c2ccc(F)cc2)C1 (centres undefined)"
  class label: "label 0"
- compound: "CN1CCN(c2cc3c(cc2F)c(=O)c(C(=O)O)cn3-c2ccc(Cl)cc2)CC1"
  class label: "label 0"

---

System: Streptococcus pyogenes
Experiment: Minimum inhibition concentration in vitro determined against Streptococcus pyogenes 930
Assay type: functional
Recorded MIC values for a group of compounds are listed next.

- compound: "CCn1cc(C(=O)O)c(=O)c2cc(F)c(N3CCNCC3)cc21"
  MIC: "3.1 µg/mL"
- compound: "O=C(O)c1cn(-c2ccc(F)cc2)c2cc(N3CCSCC3)c(F)cc2c1=O"
  MIC: "0.78 µg/mL"
- compound: "COc1ccc(-n2cc(C(=O)O)c(=O)c3cc(F)c(N4CCN(C)CC4)cc32)cc1"
  MIC: "50 µg/mL"
- compound: "O=C(O)c1cn(-c2ccc(F)cc2)c2cc(N3CCCCC3)c(F)cc2c1=O"
  MIC: "1.56 µg/mL"
- compound: "CN(C)C1CCN(c2cc3c(cc2F)c(=O)c(C(=O)O)cn3-c2ccc(F)cc2)C1 (stereo not given)"
  MIC: "3.1 µg/mL"
- compound: "O=C(O)c1cn(-c2ccc(F)cc2)c2cc(N3CCC(O)CC3)c(F)cc2c1=O"
  MIC: "1.56 µg/mL"
- compound: "CN(C)C1CCN(c2cc3c(cc2F)c(=O)c(C(=O)O)cn3-c2ccc(F)cc2)CC1"
  MIC: "1.56 µg/mL"
- compound: "CC(C)N(C)c1cc2c(cc1F)c(=O)c(C(=O)O)cn2-c1ccc(F)cc1"
  MIC: "12.5 µg/mL"
- compound: "CC(=O)N1CCN(c2cc3c(cc2F)c(=O)c(C(=O)O)cn3-c2ccc(F)cc2)CC1"
  MIC: "1.56 µg/mL"
- compound: "O=C(O)c1cn(-c2ccc(F)cc2)c2cc(N3CCCNCC3)c(F)cc2c1=O"
  MIC: "6.2 µg/mL"

---

Tested on: Klebsiella pneumoniae
Assay: Minimum inhibition concentration in vitro determined against Klebsiella pneumoniae 8045
Assay type: functional
Binary call on MIC with cut-off 0.8 µg/mL: strictly below means yes, and equality or higher means no.

- molecule: "CN1CCN(c2cc3c(cc2F)c(=O)c(C(=O)O)cn3-c2ccc(F)cc2)CC1"
  class label: "yes"
- molecule: "CN(C)C1CCN(c2cc3c(cc2F)c(=O)c(C(=O)O)cn3-c2ccc(F)cc2)C1 (stereo not given)"
  class label: "yes"
- molecule: "COc1ccc(-n2cc(C(=O)O)c(=O)c3cc(F)c(N4CCN(C)CC4)cc32)cc1"
  class label: "no"
- molecule: "CN1CCN(c2cc3c(cc2F)c(=O)c(C(=O)O)cn3-c2ccccc2)CC1"
  class label: "yes"
- molecule: "CN1CCN(c2cc3c(cc2F)c(=O)c(C(=O)O)cn3-c2ccc(F)cc2)CC1=O"
  class label: "yes"
- molecule: "CC(C)N(C)c1cc2c(cc1F)c(=O)c(C(=O)O)cn2-c1ccc(F)cc1"
  class label: "no"
- molecule: "CN1CCN(c2cc3c(cc2F)c(=O)c(C(=O)O)cn3-c2cccc(F)c2)CC1"
  class label: "no"
- molecule: "Cc1ccccc1-n1cc(C(=O)O)c(=O)c2cc(F)c(N3CCN(C)CC3)cc21"
  class label: "no"

Reference source for all entries: ChEMBL document CHEMBL1122831
